# measured on: Serine/threonine-protein kinase Chk1 (Homo sapiens)
# assay notes: Inhibition of recombinant Chk1
Exercise: state measured pIC50 for each of the molecules provided.
Numbers only, as −log10 of the molar value.

Reference set, count: 5
| sample smiles | pIC50 |
| --- | --- |
| N#Cc1ncc2nc1OCCCCCOc1cc(NCc3ccsc3)c(Cl)cc1NC(=O)N2 | 6.79 |
| N#Cc1ncc2nc1OCCCCCOc1cc(N3CCCCC3)c(Cl)cc1NC(=O)N2 | 6.86 |
| CCCCNc1cc2c(cc1Cl)NC(=O)Nc1cnc(C#N)c(n1)OCCCCCO2 | 7.82 |
| CC(C)CCOc1cc2c(cc1Cl)NC(=O)Nc1cnc(C#N)c(n1)OCCCCCO2 | 5.97 |
| N#Cc1ncc2nc1OCCCCCOc1cc(OCc3cccnc3)c(Cl)cc1NC(=O)N2 | 8.05 |

Here CC(C)CNc1cc2c(cc1Cl)NC(=O)Nc1cnc(C#N)c(n1)OCCCCCO2 was tested on Serine/threonine-protein kinase Chk1 (Homo sapiens), and its pIC50 came to 7.77

====

Kindly supply the reported pIC50 values for the records listed here.
# measured on: Serine/threonine-protein kinase Chk1 (Homo sapiens, UniProt O14757)
# Sequence (O14757 whole entry): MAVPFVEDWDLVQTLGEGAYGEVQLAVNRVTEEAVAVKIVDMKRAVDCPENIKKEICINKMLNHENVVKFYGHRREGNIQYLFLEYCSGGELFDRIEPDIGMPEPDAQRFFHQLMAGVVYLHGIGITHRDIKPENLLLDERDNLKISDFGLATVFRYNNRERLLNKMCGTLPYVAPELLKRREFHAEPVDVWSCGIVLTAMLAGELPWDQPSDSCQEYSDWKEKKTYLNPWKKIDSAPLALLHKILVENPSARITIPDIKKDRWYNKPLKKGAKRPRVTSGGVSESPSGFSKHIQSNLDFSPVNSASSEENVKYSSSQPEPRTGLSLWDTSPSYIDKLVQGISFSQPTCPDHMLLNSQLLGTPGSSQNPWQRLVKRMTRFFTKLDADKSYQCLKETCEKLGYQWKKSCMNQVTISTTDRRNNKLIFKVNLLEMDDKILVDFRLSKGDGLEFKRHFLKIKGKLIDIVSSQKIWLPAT
# assay notes: Inhibition of recombinant Chk1
Answers are plain numbers, as −log10 of the molar value.

Known pIC50 results, listed for orientation:
| molecule | property | observed measurement |
| --- | --- | --- |
| COCCOCCOc1cc2c(cc1Cl)NC(=O)Nc1cnc(C#N)c(n1)OCCCCCO2 | pIC50 | 8.05 |
| CCN(CC)c1cc2c(cc1Cl)NC(=O)Nc1cnc(C#N)c(n1)OCCCCCO2 | pIC50 | 6.61 |
| CN(C)CC(=O)Nc1cc2c(cc1Cl)NC(=O)Nc1cnc(C#N)c(n1)OCCCCCO2 | pIC50 | 9.00 |

Could I get pIC50 for every one of these entries?
1. CC(O)C#Cc1cc2c(cc1Cl)NC(=O)Nc1cnc(C#N)c(n1)OCCCCCO2 (stereo not given)
2. N#Cc1ncc2nc1OCCCCCOc1cc(NCc3ccccc3)c(Cl)cc1NC(=O)N2

Solution:
1: 7.59; 2: 6.58
